# Study Target: UniProt:Q86W56
# Sequence (Q86W56 whole entry): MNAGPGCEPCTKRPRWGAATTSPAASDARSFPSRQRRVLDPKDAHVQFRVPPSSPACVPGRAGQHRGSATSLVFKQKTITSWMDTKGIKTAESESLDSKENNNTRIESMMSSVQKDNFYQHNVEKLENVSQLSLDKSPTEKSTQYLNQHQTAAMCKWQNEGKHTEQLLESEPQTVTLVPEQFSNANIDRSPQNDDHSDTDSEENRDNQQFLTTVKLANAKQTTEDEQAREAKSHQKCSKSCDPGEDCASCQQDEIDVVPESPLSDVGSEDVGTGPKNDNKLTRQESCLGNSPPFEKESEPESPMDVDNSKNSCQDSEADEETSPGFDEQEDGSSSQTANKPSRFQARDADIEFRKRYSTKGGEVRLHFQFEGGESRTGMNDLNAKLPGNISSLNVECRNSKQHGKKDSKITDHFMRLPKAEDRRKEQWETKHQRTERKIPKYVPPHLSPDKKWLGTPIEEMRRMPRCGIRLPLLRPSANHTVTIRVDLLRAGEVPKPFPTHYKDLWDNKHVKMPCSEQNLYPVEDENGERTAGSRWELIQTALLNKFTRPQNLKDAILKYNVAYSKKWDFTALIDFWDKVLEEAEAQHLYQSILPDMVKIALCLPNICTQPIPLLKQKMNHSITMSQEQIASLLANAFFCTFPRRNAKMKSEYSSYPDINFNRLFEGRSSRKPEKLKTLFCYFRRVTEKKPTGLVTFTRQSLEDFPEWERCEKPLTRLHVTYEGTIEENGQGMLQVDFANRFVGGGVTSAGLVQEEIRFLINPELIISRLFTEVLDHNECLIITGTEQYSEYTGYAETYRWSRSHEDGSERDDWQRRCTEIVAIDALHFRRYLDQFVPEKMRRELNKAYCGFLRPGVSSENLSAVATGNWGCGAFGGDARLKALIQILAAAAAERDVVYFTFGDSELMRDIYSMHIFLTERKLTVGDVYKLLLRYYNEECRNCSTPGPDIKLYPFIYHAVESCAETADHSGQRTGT
# Measurement Description: Inhibition of human full length PARG using Bt-NAD ribosylated PARP1 substrate after 10 mins by TR-FRET assay
pEC50: −log10 of the molar value.
I would appreciate it if you labelled entries 1.0 when pEC50 is 5 or higher, otherwise 0.0.

Worked examples follow.
Cn1c(=O)c2cc(S(=O)(=O)NC3(C)CC3)ccc2n(Cc2ccccc2)c1=O
1.0
CC1(NS(=O)(=O)c2ccc3c(c2)c(=O)n(CC#N)c(=O)n3CC2CC2)CC1
1.0
Cc1nnc(Cn2c(=O)c3cc(S(=O)(=O)NC4(C)CC4)ccc3n(C)c2=O)s1
1.0
O=c1[nH]c2ccc(S(=O)(=O)NC3CC3)cc2c2ccccc12
0.0
Cn1cnnc1Cn1c(=O)c2cc(S(=O)(=O)NC3(C)CC3)ccc2n(C)c1=O
1.0
Cn1c(=O)n(Cc2cccnc2)c(=O)c2cc(S(=O)(=O)NC3(C)CC3)ccc21
1.0
Cn1nccc1Cn1c(=O)n(C)c(=O)c2cc(S(=O)(=O)NC3(C)CC3)ccc21
1.0
Cc1cc(Cn2c(=O)c3cc(S(=O)(=O)NC4(C)CC4)ccc3n(C)c2=O)on1
1.0
Cn1c(=O)[nH]c2ccc(S(=O)(=O)NC3(C)CC3)cc2c1=O
1.0
CNS(=O)(=O)c1ccc2c(c1)C(=O)c1ccccc1C2=O
0.0

Query :: API: above_or_equal(metric=pEC50, cutoff=5) for item CCNS(=O)(=O)c1ccc2c(c1)C(=O)c1ccccc1C2=O
Result :: 0.0

Query :: Can you check Cc1noc(Cn2c(=O)c3cc(S(=O)(=O)NC4(C)CC4)ccc3n(C)c2=O)n1 next?
Result :: 1.0

Query :: Can you check C#CCn1c(=O)n(Cc2cnn(C)c2)c(=O)c2cc(S(=O)(=O)NC3(C)CC3)ccc21 next?
Result :: 1.0

Query :: Can you check CCn1c(=O)c2cc(S(=O)(=O)NC3(C)CC3)ccc2n(CC)c1=O next?
Result :: 1.0
